# experiment.summary: Human liver microsome (HLM) metabolic stability assay
# Format: in vitro ADME
# run.conditions: human liver microsomes
result.type: Metabolic stability (Qh %), % hepatic blood flow

Past entries and their recorded results:
# compound.structure.string, test.value
data = [
    ("Cc1ccc(OCc2cc(C)c3c(c2C)CCN(C2CCOCC2)C3)c(-c2cccc(N3C[C@@H]4C[C@]4(C(=O)O)C3)n2)c1", "<24%"),
    ("COc1cc(COc2c(Cl)cccc2-c2cccc(N3CC[C@@H](C(=O)O)[C@@H](OC)C3)n2)cc2c1CN(C1CCOCC1)CC2", "36%"),
]

Then there is this compound:
Query block: Give the value of Metabolic stability (Qh %), % hepatic blood flow reported for the following: "CO[C@H]1CN(c2cccc(-c3cccc(C)c3OCc3ccc4c(c3C)CCN(C3COC3)CC4)n2)CC[C@@H]1C(=O)O"
Result block: <24%

* * *

# experiment.summary: physchem
# run.conditions: pH 6.8, aqueous buffer, kinetic from dmso stock, Solubility (pH 6.8)
The entries below come with measured solubility at 24 h values attached.
Your answer should be a plain number; it is taken to be in mg/mL.

Past entries and their recorded results:
# compound.structure.string, unit.info, solubility at 24 h
data = [
    ("COC[C@H]1N(c2cccc(-c3cc(C)ccc3OCc3cc(C)c4c(c3)CCN(C3CCOCC3)C4)n2)C[C@@H]2C[C@@]21C(=O)O", "mg/mL", 0.137),
    ("Cc1cccc(-c2cccc(N3C[C@@H]4C[C@]4(C(=O)O)C3)n2)c1OCc1cc(C#N)c2c(c1)CCN(C1COC1)C2", "mg/mL", 0.079),
    ("Cc1cccc(-c2csc(N3CC[C@@]4(C(=O)O)C[C@H]4C3)n2)c1OCc1ccc2c(c1)CCN(C1CCOCC1)C2", "mg/mL", 0.053),
    ("Cc1c(COc2ccccc2-c2cccc(N3CC[C@@]4(C(=O)O)C[C@H]4C3)n2)ccc2c1CCN([C@H]1CCOC1)C2", "mg/mL", 0.059),
    ("Cc1cc(COc2c(C)cccc2-c2cccc(N3C[C@@H]4C[C@]4(C(=O)O)C3)n2)cc2c1CN(C1COC1)CC2", "mg/mL", 0.069),
    ("COC[C@H]1N(c2nc(-c3cccc(C)c3OCc3ccc4c(c3C)CCN(C3CCOCC3)C4)cs2)C[C@@H]2C[C@@]21C(=O)O", "mg/mL", 0.089),
    ("CO[C@H]1CN(c2cccc(-c3cc(C)ccc3OCc3ccc4c(c3C)CCN(C3CCOCC3)CC4)n2)CC[C@H]1C(=O)O", "mg/mL", 0.069),
]

Then there is this molecule:
Query block: Give the value of solubility at 24 h reported for the following: "Cc1ccc(OCc2ccc3c(c2)CCN(C2CCOCC2)C3)c(-c2cccc(N3CC[C@@]4(C(=O)O)C[C@H]4C3)n2)c1"
Result block: 0.041

* * *

# experiment.summary: Human liver microsome (HLM) metabolic stability assay
# Type: in vitro ADME
# run.conditions: human liver microsomes
result.type: Metabolic stability (Qh %), % hepatic blood flow

Past entries and their recorded results:
# compound.structure.string, test.value
rows = [
    ("Cc1ccc(OCc2ccc3c(c2)CCN(C2CCOCC2)C3)c(-c2csc(N3C[C@@H]4C[C@]4(C(=O)O)C3)n2)c1", "<24%"),
    ("CO[C@H]1CN(c2nc(-c3cccc(C)c3OCc3cc(C)c4c(c3)CCN(C3CCOCC3)C4)cs2)CC[C@H]1C(=O)O", "<24%"),
]

Then there is this molecule:
Query block: Give the value of Metabolic stability (Qh %), % hepatic blood flow reported for the following: "CCO[C@H]1CN(c2nc(-c3cc(C)ccc3OCc3cc4c(c(OC)c3)CN(C3CCOCC3)CC4)cs2)CC[C@H]1C(=O)O"
Result block: <24%

* * *

# experiment.summary: physchem
# run.conditions: pH 4.5, aqueous buffer, kinetic from dmso stock, Solubility (pH 4.5)
result.type: solubility at 24 h (mg/mL)
Your answer should be a plain number; it is taken to be in mg/mL.

Past entries and their recorded results:
# compound.structure.string, result.type, test.value
measured = [
    ("Cc1cccc(-c2csc(N3C[C@H]4C[C@@]4(C(=O)O)[C@@H]3C)n2)c1OCc1ccc2c(c1C)CCN(C1CCOCC1)C2", "solubility at 24 h", 0.069),
    ("CO[C@H]1CN(c2cccc(-c3cccc(C)c3OCc3ccc4c(c3C)CCN(C3CCOCC3)CC4)n2)CC[C@H]1C(=O)O", "solubility at 24 h", 0.073),
    ("Cc1ccc(OCc2cnc3c(c2)CCN(C2CCOCC2)C3)c(-c2csc(N3CC[C@@]4(C(=O)O)C[C@H]4C3)n2)c1", "solubility at 24 h", 0.07),
    ("COCc1cc(COc2c(C)cccc2-c2cccc(N3C[C@@H]4C[C@]4(C(=O)O)[C@H]3COC)n2)cc2c1CN(C1COC1)CC2", "solubility at 24 h", 0.0874),
]

Then there is this compound:
Query block: Give the value of solubility at 24 h reported for the following: "Cc1cccc(-c2cccc(N3C[C@@H]4C[C@]4(C(=O)O)C3)n2)c1OCc1cc(C#N)c2c(c1)CCN(C1COC1)C2"
Result block: 0.076

* * *

# tested.target: human soluble guanylate cyclase alpha 1 and beta 1 subunits (sGC) (Homo sapiens (Human), UniProt Q02108+Q02153)
# Sequence (Q02108 whole entry partner): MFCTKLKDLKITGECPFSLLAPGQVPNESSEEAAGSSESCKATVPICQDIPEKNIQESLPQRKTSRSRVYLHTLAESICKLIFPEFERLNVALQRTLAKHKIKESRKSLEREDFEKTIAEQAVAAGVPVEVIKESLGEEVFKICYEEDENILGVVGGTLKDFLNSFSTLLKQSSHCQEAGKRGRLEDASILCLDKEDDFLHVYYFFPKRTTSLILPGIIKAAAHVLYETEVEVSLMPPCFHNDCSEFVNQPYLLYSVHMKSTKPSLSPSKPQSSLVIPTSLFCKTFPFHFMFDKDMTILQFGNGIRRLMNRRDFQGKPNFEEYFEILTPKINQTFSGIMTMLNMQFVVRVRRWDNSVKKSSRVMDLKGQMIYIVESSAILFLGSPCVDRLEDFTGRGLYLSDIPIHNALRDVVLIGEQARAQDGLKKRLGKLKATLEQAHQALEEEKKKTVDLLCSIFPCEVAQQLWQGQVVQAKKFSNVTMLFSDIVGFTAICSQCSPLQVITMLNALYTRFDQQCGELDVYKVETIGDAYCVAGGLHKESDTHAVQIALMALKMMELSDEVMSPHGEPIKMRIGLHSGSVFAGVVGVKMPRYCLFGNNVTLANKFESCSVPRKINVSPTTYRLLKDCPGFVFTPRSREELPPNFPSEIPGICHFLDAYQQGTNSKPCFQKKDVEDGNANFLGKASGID
# Sequence (Q02153 whole entry): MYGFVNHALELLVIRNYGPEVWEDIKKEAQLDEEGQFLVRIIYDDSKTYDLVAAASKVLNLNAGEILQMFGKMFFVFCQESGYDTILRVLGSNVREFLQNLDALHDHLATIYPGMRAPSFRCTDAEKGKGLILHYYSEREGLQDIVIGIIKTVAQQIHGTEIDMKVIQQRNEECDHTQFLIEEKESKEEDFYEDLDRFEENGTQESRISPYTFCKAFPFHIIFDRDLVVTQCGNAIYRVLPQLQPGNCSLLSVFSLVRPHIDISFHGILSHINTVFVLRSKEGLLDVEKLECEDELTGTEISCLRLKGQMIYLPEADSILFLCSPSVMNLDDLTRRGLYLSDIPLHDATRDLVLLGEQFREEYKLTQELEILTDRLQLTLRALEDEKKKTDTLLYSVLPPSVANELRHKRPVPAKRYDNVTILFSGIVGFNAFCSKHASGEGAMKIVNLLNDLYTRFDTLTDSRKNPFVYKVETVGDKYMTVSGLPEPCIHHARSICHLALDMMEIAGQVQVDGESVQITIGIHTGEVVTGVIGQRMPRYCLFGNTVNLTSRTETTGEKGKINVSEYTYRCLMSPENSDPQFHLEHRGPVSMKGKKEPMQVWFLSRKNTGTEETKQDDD
# experiment.summary: sGC cellular activator assay (cGMP, HTRF), in the presence and absence of 50% human serum
# run.conditions: CHO cells stably expressing human sGC alpha 1/beta 1, preincubated with 40 microM ODQ; cGMP by HTRF; Table 2 does not state whether with or without 50% human serum
result.type: EC50 (nM)
Your answer should be a plain number; it is taken to be in nM.

# compound, test.value
rows = [
    ("Cc1cccc(-c2cccc(N3CC[C@@]4(C(=O)O)C[C@H]4C3)n2)c1OCc1ccc2c(c1C)CCN(C1CCOCC1)C2", 3),
]

Query block: Give the value of EC50 reported for the following: Cc1cc(COc2c(C)cccc2-c2csc(N3CC[C@@]4(C(=O)O)C[C@H]4C3)n2)cc2c1CN(CC1COCCO1)CC2 (stereo partly drawn) [Compound 91]
Result block: 3

Query block: Give the value of EC50 reported for the following: "CO[C@@H]1CN(c2nc(-c3cccc(C)c3OCc3ccc4c(c3F)CCN(C3CCOCC3)CC4)cs2)CC[C@@H]1C(=O)O"
Result block: 5

* * *

# experiment.summary: physchem
# run.conditions: pH 6.8, aqueous buffer, kinetic from dmso stock, Solubility (pH 6.8)
So basically: solubility at 24 h at 60 µg/mL or higher? That is class 1. Lower than 60 µg/mL? That is class 0.

Examples from the recorded data:
# molecule, category
data = [
    ("Cc1cccc(-c2cccc(N3C[C@@H]4C[C@]4(C(=O)O)C3)n2)c1OCc1ccc2c(c1)CCN(C1CCOCC1)C2 [Compound 20]", "class 1"),
    ("CCO[C@@H]1CN(c2cccc(-c3cccc(Cl)c3OCc3cc(C)c4c(c3)CCN(C3CCOCC3)C4)n2)CC[C@@H]1C(=O)O [Compound 259]", "class 0"),
    ("CO[C@H]1CN(c2nc(-c3cccc(C)c3OCc3cc(C)c4c(c3F)CCN(C3CCOCC3)C4)cs2)CC[C@H]1C(=O)O [Compound 242]", "class 1"),
    ("Cc1ccc(OCc2cc(C)c3c(c2C)CCN(C2CCOCC2)C3)c(-c2csc(N3CC[C@@]4(C(=O)O)C[C@H]4C3)n2)c1 [Compound 125]", "class 0"),
    ("CO[C@@H]1CN(c2cccc(-c3cc(C)ccc3OCc3cc(C)c4c(c3)CCN(C3CCOCC3)C4)n2)CC[C@@H]1C(=O)O [Compound 76]", "class 1"),
]

Query block: Please tell me: is the molecule CCO[C@@H]1CN(c2nccc(-c3cccc(C)c3OCc3cc4c(c(OC)c3)CN(C3CCOCC3)CC4)n2)CC[C@@H]1C(=O)O [Compound 248] at or over 60 µg/mL in terms of solubility at 24 h?
Result block: class 1

Query block: Please tell me: is the molecule CO[C@H]1CN(c2nc(-c3cc(C)ccc3OCc3ccc4c(c3C)CCN(C3CCOCC3)C4=O)cs2)CC[C@H]1C(=O)O [Compound 203] at or over 60 µg/mL in terms of solubility at 24 h?
Result block: class 0

Query block: Please tell me: is the molecule CO[C@H]1CN(c2cccc(-c3cccc(C)c3OCc3ccc4c(c3C)CCN(C3COC3)CC4)n2)CC[C@@H]1C(=O)O [Compound 289] at or over 60 µg/mL in terms of solubility at 24 h?
Result block: class 1

Query block: Please tell me: is the molecule Cc1cc(COc2ccccc2-c2cccc(N3CC[C@@]4(C(=O)O)C[C@H]4C3)n2)cc2c1CN(C1CCOCC1)CC2 [Compound 12] at or over 60 µg/mL in terms of solubility at 24 h?
Result block: class 0
